Listing: Emax (MFI) of selected binders
Molecular target: T1, human CLDN18.2 (human)
T1 construct: the HEK293 line was made with a GenScript plasmid; also called hCLDN18.2
Experiment: FACS on NUGC4_D8 cells
Kindly provide the numeric value in MFI only, without the unit symbol.

{"Binder": "PR007246 (antibody, human IgG1, V domains shown, HCDR2 PTM-removal mutant of PR004533; HCAb, human IgG1 Fc; also called 4533_M3F10) VH: EVQLVESGGGLVQPGGSLRLSCAASGFTFSSYWMHWVRQVPGKGLVWVSRISSTGSRTIYADSVKGRFTISRDNAKNTLYLQMNSLRAEDTAVYYCARGEDHDILTGYPIRGQGTTVTVSS", "Units text": "MFI", "Emax (MFI)": 166000}
{"Binder": "PR000400 (antibody, human IgG1, kappa, V domains shown, also called IMAB362 analogue) VH: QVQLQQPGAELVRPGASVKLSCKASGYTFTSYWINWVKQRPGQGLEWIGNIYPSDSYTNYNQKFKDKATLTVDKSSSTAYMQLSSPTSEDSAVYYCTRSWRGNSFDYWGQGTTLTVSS VL: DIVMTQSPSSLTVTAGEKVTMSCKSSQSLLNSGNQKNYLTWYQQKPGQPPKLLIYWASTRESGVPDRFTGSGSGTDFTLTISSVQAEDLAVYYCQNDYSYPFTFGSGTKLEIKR", "Units text": "MFI", "Emax (MFI)": 58400}
{"Binder": "PR007244 (antibody, human IgG1, V domains shown, HCDR2 PTM-removal mutant of PR004533; HCAb, human IgG1 Fc; also called 4533_M4H6) VH: EVQLVESGGGLVQPGGSLRLSCAASGFTFSSYWMHWVRQVPGKGLVWVSRIDSRGSRTIYADSVKGRFTISRDNAKNTLYLQMNSLRAEDTAVYYCARGEDHDILTGYPIRGQGTTVTVSS", "Units text": "MFI", "Emax (MFI)": 153000}

Looking up PR007248 (antibody, human IgG1, V domains shown, HCDR2 PTM-removal mutant of PR004533; HCAb, human IgG1 Fc; also called 4533_M10E7) VH: EVQLVESGGGLVQPGGSLRLSCAASGFTFSSYWMHWVRQVPGKGLVWVSRINHDSSRTIYADSVKGRFTISRDNAKNTLYLQMNSLRAEDTAVYYCARGEDHDILTGYPIRGQGTTVTVSS , I see its Emax (MFI) listed as 174000

Looking up PR007245 (antibody, human IgG1, V domains shown, HCDR2 PTM-removal mutant of PR004533; HCAb, human IgG1 Fc; also called 4533_M6E6) VH: EVQLVESGGGLVQPGGSLRLSCAASGFTFSSYWMHWVRQVPGKGLVWVSRISSDASRTIYADSVKGRFTISRDNAKNTLYLQMNSLRAEDTAVYYCARGEDHDILTGYPIRGQGTTVTVSS , I see its Emax (MFI) listed as 137000

Looking up PR007243 (antibody, human IgG1, V domains shown, HCDR2 PTM-removal mutant of PR004533; HCAb, human IgG1 Fc; also called 4533_M3D9) VH: EVQLVESGGGLVQPGGSLRLSCAASGFTFSSYWMHWVRQVPGKGLVWVSRISSAGSRTIYADSVKGRFTISRDNAKNTLYLQMNSLRAEDTAVYYCARGEDHDILTGYPIRGQGTTVTVSS , I see its Emax (MFI) listed as 176000

Looking up PR007242 (antibody, human IgG1, V domains shown, HCDR2 PTM-removal mutant of PR004533; HCAb, human IgG1 Fc; also called 4533_M10E1) VH: EVQLVESGGGLVQPGGSLRLSCAASGFTFSSYWMHWVRQVPGKGLVWVSRINFDSSRTIYADSVKGRFTISRDNAKNTLYLQMNSLRAEDTAVYYCARGEDHDILTGYPIRGQGTTVTVSS , I see its Emax (MFI) listed as 176000
